- Test system: bilirubin oxidase
- Assay type: biochemical, Penicillium janthinellum
- stated-conditions: additive (metal ion, EDTA) 1 mM; activity without addition = 100; 10 min
// NB: equality with 50% counts as False; only Relative Acty. (relative enzyme activity with additive) strictly below is True

See these solved cases before continuing.
[Cl][Ni][Cl] [NiCl2]
True
[Cl][Al]([Cl])[Cl] [AlCl3]
False
[Cl][Mn][Cl] [MnCl2]
True
[Cl-].[Cl-].[Co+2] [CoCl2]
True
[Cl][Cu][Cl] [CuCL2]
True
[Cl][Fe]([Cl])[Cl] [FeCl3]
False
[Cl][Pb][Cl] [PbCl2]
False
[Cl-].[K+] [KCl]
False
[Ca+2].[Cl-].[Cl-] [CaCl2]
True
Cl.N [NH4 Cl]
False

// query I'd appreciate it if you could check whether [Cl-].[Cl-].[Mg+2] [MgCl2] has Relative Acty. (relative enzyme activity with additive) smaller than 50%.
// result False

// query Here is the next compound: [Cl-].[Cl-].[Zn+2] [ZnCl2]
// result False

// query Further, for [Cl-].[Cs+] [CsCl] ?
// result False

// query And the next one, [N-]=[N+]=[N-].[Na+] [NaN3] ?
// result False
